Test system: A431 cells
MEASUREMENT NOTES: NRU cell viability assay, A431
Type: cell-based, human
CONDITION LABEL: Homo sapiens, A-431, 24 h
Examples of molecules with documented IC50 follow.

# MOLECULE, READOUT UNITS, IC50
rows = [
    ("C[C@@H]1CN([C@@H](C)c2ccccc2)C(=O)C1(Cl)Cl", "µg/mL", 60.2),
    ("C[C@@H](c1ccccc1)N1C[C@H](C)C(Cl)(Cl)C1=O [epi-3]", "µg/mL", 123),
    ("C[C@H](c1ccccc1)N1C[C@H](C)C(Cl)(Cl)C1=O", "µg/mL", 108),
    ("C[C@H](c1ccccc1)N1C[C@@H](C)C(Cl)(Cl)C1=O [epi-4]", "µg/mL", 61.7),
]
